# ASSAY_TEXT: HILIC, Merck SeQuant ZIC-HILIC, 25 °C, 0.25 mL/min; A: water + 16 mM ammonium formate; B: acetonitrile + 0.1% formic acid, pH 3; gradient (min/%B) 0/97 2/97 10/70 15/10 17/10 18/97 25/97
# CONDITION_INFO: stereoisomer not certain
Counter-ions that a name gives are not always drawn.
Label 0 if LC retention time falls below 10 min; label 1 in every other case.

1) O=c1ccn(C2OC(CO)C(O)C2O)c(=O)[nH]1 (centres undefined): 0
2) C[C@@H](O)[C@H](N)C(=O)O: 1
3) CC(C)=CC(=O)SCCNC(=O)CCNC(=O)C(O)C(C)(C)COP(=O)(O)OP(=O)(O)OCC1OC(n2cnc3c(N)ncnc32)C(O)C1OP(=O)(O)O (centres undefined): 1
4) O=C(O)CCCC(=O)O [GLUTARATE]: 0
5) OCC1OC(OCC2OC(O)(CO)C(O)C2O)C(O)C(O)C1O (centres undefined): 1
6) NC(Cc1cc(I)c(Oc2ccc(O)cc2)c(I)c1)C(=O)O (centres undefined): 0
7) CC(=O)C1(O)CCC2C3CCC4=CC(=O)CCC4(C)C3C(O)CC21C (centres undefined): 0
8) NCCCCC(=O)O [5-AMINOPENTANOATE]: 1
9) CC(=O)OC(CC(=O)[O-])C[N+](C)(C)C (stereo not drawn) [o-acetyl-l-carnitine hydrochloride]: 1

====

# ASSAY_TEXT: HILIC, Merck SeQuant ZIC-HILIC, 25 °C, 0.25 mL/min; A: water + 16 mM ammonium formate; B: acetonitrile + 0.1% formic acid, pH 3; gradient (min/%B) 0/97 2/97 10/70 15/10 17/10 18/97 25/97
# CONDITION_INFO: stereoisomer not certain
As shown below, each of these molecules has a reported LC retention time value.
PARAMETER: LC retention time (min)

1) CCCCCCCCCC(=O)OCC(COP(=O)([O-])OCC[N+](C)(C)C)OC(=O)CCCCCCCCC (stereo not given): 10.6
2) CS(=N)(=O)CCC(N)C(=O)O (stereo not given): 14.4
3) NCC(=O)CCC(=O)O [5-AMINOLEVULINATE]: 13.8
4) Nc1ccn(C2OC(COP(=O)(O)OP(=O)(O)OP(=O)(O)O)C(O)C2O)c(=O)n1 (stereo not given) [CYTIDINE TRIPHOSPHATE]: 15.9
5) O=C(O)c1c(O)cccc1O [2-6-Dihydroxybenzoic acid]: 2.07
6) O=C(O)CCc1ccccc1 [hydrocinnamic acid]: 1.69
7) Nc1ccn(C2CC(O)C(COP(=O)(O)O)O2)c(=O)n1 (stereo not given) [DEOXYCYTIDINE MONOPHOSPHATE]: 14.5
8) CC12CCC(=O)C=C1CCC1C2C(O)CC2(C)C1CCC2(O)C(=O)CO (stereo not given): 1.89
9) Cn1c(=O)[nH]c2[nH]c(=O)[nH]c2c1=O: 9.44
10) NC(=O)c1ncn(C2OC(COP(=O)(O)O)C(O)C2O)c1N (stereo not given): 14.2
11) NCCC(=O)O: 14.1
12) CC1OC(OCC2OC(Oc3c(-c4ccc(O)c(O)c4)oc4cc(O)cc(O)c4c3=O)C(O)C(O)C2O)C(O)C(O)C1O (stereo not given) [rutin hydrate]: 10.6
13) C=C(C)CCOP(=O)(O)OP(=O)(O)O [ISOPENTENYL PYROPHOSPHATE]: 2.11
14) CCCCCCCCCCCCCCCC(=O)OCC(O)COP(=O)(O)O (stereo not given): 9.22
15) CCCCCCCCCCCCCCCCCC(=O)OCC(O)COP(=O)(O)OCCN (stereo not given): 10.2
16) O=C(O)C(=O)Cc1ccccc1 [PHENYLPYRUVATE]: 2.18
17) O=Cc1ccc(O)cc1 [4-HYDROXYBENZALDEHYDE]: 1.77
18) NCCc1ccc(O)c(O)c1: 12.5
19) O=C([O-])C=CC(=O)[O-] [MALEATE]: 2.17
20) CC(=O)NC(CC(=O)O)C(=O)O (stereo not given) [N-ACETYLASPARTATE]: 8.76
